protocol.summary: NCI Yeast Anticancer Drug Screen. Data for the mec2-1 strain (AID 157)
setup.conditions: S. cerevisiae mec2-1 strain, at 5.0 µM (retest, dose inferred, filed as 0.5), active compounds read high
About 79,000 compounds went through this panel and 15% of them were active in at least one assay; those are over-represented in the sample as a whole.
property: growth inhibition (%)
Report as a plain number; the unit % is understood.

stdin: Recorded growth inhibition for CCCC(C)(O)C(C)CC (stereo not drawn) , please?
stdout: 0

stdin: Recorded growth inhibition for "C/C(=N\NC(=S)N1CCC(C)CC1)c1ncccn1" , please?
stdout: -5

stdin: Recorded growth inhibition for COc1cc(Br)c(CC(NC=O)c2ccc3c(c2)OCO3)cc1OC (stereo not drawn) , please?
stdout: -3

stdin: Recorded growth inhibition for "NCCc1ccc2oc3cc(=O)c4ccccc4c-3nc2c1" , please?
stdout: -1

stdin: Recorded growth inhibition for CC(C)(C)C(=O)CC(Cc1nccc2ccccc12)c1ccco1 (stereo not drawn) , please?
stdout: -5

stdin: Recorded growth inhibition for "O=Cc1c(I)cc(I)c(O)c1I" , please?
stdout: 46

stdin: Recorded growth inhibition for "C=[CH][Sn]([CH]=C)([S]c1cccc2cccnc12)[S]c1cccc2cccnc12" , please?
stdout: 16

stdin: Recorded growth inhibition for "C1=Nc2ccccc2/C1=C/c1ccccc1" , please?
stdout: -9

stdin: Recorded growth inhibition for "O=c1[nH]c(C(F)(F)F)c(F)c(=O)[nH]1" , please?
stdout: 3

stdin: Recorded growth inhibition for "N#CC(C#N)=C(C1CC1)C1CC1" , please?
stdout: -42

stdin: Recorded growth inhibition for "CC(=O)OC/C=C/CCCOC(C)=O" , please?
stdout: -12

stdin: Recorded growth inhibition for "Nc1ccc(/C=C2/c3ccccc3-c3nc4ccccc4cc32)cc1" , please?
stdout: 0

stdin: Recorded growth inhibition for Cc1nn(C(=O)c2ccccc2O)c2c1C(c1ccc(O)cc1O)SC(N)=N2 (stereo not drawn) , please?
stdout: -1
